- System: Thoracic aorta
- ASSAY EXPLANATION: Anti-atherosclerosis activity in Sprague-Dawley rat thoracic aortic vascular ring endothelial injury model assessed as reduction in vascular endothelial proliferation after 13 days by hematoxylin and eosin staining based assay
- Format: functional, tissue-based
Activity calls are given as the source filed them. No cut-off for these calls is given here.
Labels: active, inactive

STRUCTURE	TARGET OR TEST SYSTEM	CATEGORY LABEL
O=C1C[C@@H](c2ccc(O)c(O)c2)Oc2cc(O)cc(O)c21	Thoracic aorta	inactive
O=c1c(O)c(-c2ccc(O)cc2)oc2cc(O)cc(O)c12	Thoracic aorta	inactive
C[C@@H]1O[C@@H](OC[C@H]2O[C@@H](Oc3cc(O)c4c(c3)O[C@H](c3ccc(O)cc3)CC4=O)[C@H](O)[C@@H](O)[C@@H]2O)[C@H](O)[C@H](O)[C@H]1O	Thoracic aorta	inactive
O=c1cc(-c2ccc(O)c(O)c2)oc2cc(O)cc(O)c12	Thoracic aorta	inactive
O=c1c(O[C@@H]2O[C@H](CO)[C@@H](O)[C@H](O)[C@H]2O)c(-c2ccc(O)cc2)oc2cc(O)cc(O)c12	Thoracic aorta	active
O=c1cc(-c2ccc(O)c(O)c2)oc2cc(O[C@@H]3O[C@H](CO)[C@@H](O)[C@H](O)[C@H]3O)cc(O)c12	Thoracic aorta	inactive
C[C@@H]1O[C@@H](O[C@H]2[C@H](Oc3cc(O)c4c(c3)O[C@H](c3ccc(O)cc3)CC4=O)O[C@H](CO)[C@@H](O)[C@@H]2O)[C@H](O)[C@H](O)[C@H]1O	Thoracic aorta	inactive
